System: Abuthilon theophrasti (ABUTH)
test-summary: Herbicidal glasshouse test, pre-emergence
Type: in vivo
condition-description: Abutilon theophrasti, pre-emergence, 312 h, PRE Application, evaluated after 13 days, read-out: damage to plant (100=total damage to plant; 0=no damage to plant)
Description: Seeds of a variety of test species were sown in standard soil in pots (Alopecurus myosuroides (ALOMY), Setaria faberi (SETFA), Echinochloa crus-galli (ECHCG), Abuthilon theophrasti (ABUTH) and Amaranthus retoflexus (AMARE)). […] After 13 days for pre and post-emergence, the test was evaluated (100=total damage to plant; 0=no damage to plant).

- structure-smiles: "O=C1CCCC(=O)C1C(=O)c1cc2cc(F)cnc2n(CCOc2ccccc2)c1=O"
  unit-tag: "%"
  pest or weed control at 250 g/ha: 50
- structure-smiles: "CCn1c(=O)c(C(=O)C2C(=O)CCCC2=O)cc2cc(F)cnc21"
  unit-tag: "%"
  pest or weed control at 250 g/ha: 90
- structure-smiles: "COCCn1c(=O)c(C(=O)C2C(=O)CCCC2=O)cc2cc(F)c(C)nc21"
  unit-tag: "%"
  pest or weed control at 250 g/ha: 90
- structure-smiles: "CCCn1c(=O)c(C(=O)C2C(=O)CCCC2=O)cc2cc(F)cnc21"
  unit-tag: "%"
  pest or weed control at 250 g/ha: 90

---

Tested on: Alopecurus myosuroides (ALOMY)
test-summary: Herbicidal glasshouse test, pre-emergence
Assay type: in vivo
condition-description: PRE Application, 250 g/ha, evaluated after 13 days
Entries annotated with measured damage to plant (100=total damage to plant; 0=no damage to plant)
observed-property: damage to plant (100=total damage to plant; 0=no damage to plant)

- structure-smiles: "COc1ccccc1-n1c(=O)c(C(=O)C2C(=O)CCCC2=O)cc2cc(F)cnc21"
  study-target: "Alopecurus myosuroides (ALOMY)"
  value-reported: 100
- structure-smiles: "O=C1CCCC(=O)C1C(=O)c1cc2cc(F)cnc2n(CC(F)F)c1=O"
  study-target: "Alopecurus myosuroides (ALOMY)"
  value-reported: 70
- structure-smiles: "COc1ccc(Cn2c(=O)c(C(=O)C3C(=O)CCCC3=O)cc3cc(F)cnc32)cc1"
  study-target: "Alopecurus myosuroides (ALOMY)"
  value-reported: 0
- structure-smiles: "O=C1CCCC(=O)C1C(=O)c1cc2cc(F)cnc2n(-c2cccc(Cl)c2)c1=O"
  study-target: "Alopecurus myosuroides (ALOMY)"
  value-reported: 90

---

System: Abuthilon theophrasti (ABUTH)
test-summary: Herbicidal glasshouse test, pre-emergence
Type: in vivo
condition-description: Abutilon theophrasti, pre-emergence, 312 h, PRE Application, evaluated after 13 days, read-out: damage to plant (100=total damage to plant; 0=no damage to plant)
Experimental: Seeds of a variety of test species were sown in standard soil in pots (Alopecurus myosuroides (ALOMY), Setaria faberi (SETFA), Echinochloa crus-galli (ECHCG), Abuthilon theophrasti (ABUTH) and Amaranthus retoflexus (AMARE)). […] After 13 days for pre and post-emergence, the test was evaluated (100=total damage to plant; 0=no damage to plant).
Each record is given Satisfied if its reported pest or weed control at 250 g/ha is strictly below 90%. Records at or above 90% are given Not satisfied.

- structure-smiles: "COCn1c(=O)c(C(=O)C2C(=O)CCCC2=O)cc2cc(F)c(C)nc21"
  discrete-label: "Satisfied"
- structure-smiles: "Cc1cc(C)c2cc(C(=O)C3C(=O)CCCC3=O)c(=O)n(C)c2n1"
  discrete-label: "Satisfied"
- structure-smiles: "COCn1c(=O)c(C(=O)C2C(=O)CCCC2=O)cc2cc(F)cnc21"
  discrete-label: "Not satisfied"
- structure-smiles: "Cn1c(=O)c(C(=O)C2C(=O)CCCC2=O)cc2ccc(Br)cc21"
  discrete-label: "Satisfied"
- structure-smiles: "O=C1CCCC(=O)C1C(=O)c1cc2cc(F)cnc2n(-c2ccccc2[N+](=O)[O-])c1=O"
  discrete-label: "Not satisfied"
- structure-smiles: "Cc1ccc2cc(C(=O)C3C(=O)CCCC3=O)c(=O)n(C)c2n1"
  discrete-label: "Satisfied"

---

Tested on: Abuthilon theophrasti (ABUTH)
test-summary: Herbicidal glasshouse test, pre-emergence
Assay type: in vivo
condition-description: PRE Application, 250 g/ha, evaluated after 13 days
Protocol: Seeds of a variety of test species were sown in standard soil in pots (Alopecurus myosuroides (ALOMY), Setaria faberi (SETFA), Echinochloa crus-galli (ECHCG), Abuthilon theophrasti (ABUTH) and Amaranthus retoflexus (AMARE)). […] After 13 days for pre and post-emergence, the test was evaluated (100=total damage to plant; 0=no damage to plant).
# reported damage to plant (100=total damage to plant; 0=no damage to plant); entries follow
observed-property: damage to plant (100=total damage to plant; 0=no damage to plant)

- compound: "O=C1CCCC(=O)C1C(=O)c1cc2cc(F)cnc2n(-c2ccccc2Cl)c1=O [Compound 4.28]"
  study-target: "Abuthilon theophrasti (ABUTH)"
  value-reported: 100
- compound: "COc1ccccc1-n1c(=O)c(C(=O)C2C(=O)CCCC2=O)cc2cc(F)cnc21 [Compound 4.33]"
  study-target: "Abuthilon theophrasti (ABUTH)"
  value-reported: 100
- compound: "O=C1CCCC(=O)C1C(=O)c1cc2cc(F)cnc2n(Cc2ccccc2F)c1=O [Compound 4.15]"
  study-target: "Abuthilon theophrasti (ABUTH)"
  value-reported: 70
- compound: "O=C1CCCC(=O)C1C(=O)c1cc2cc(F)cnc2n(-c2ccc(F)cc2F)c1=O [Compound 4.35]"
  study-target: "Abuthilon theophrasti (ABUTH)"
  value-reported: 100
- compound: "O=C1CCCC(=O)C1C(=O)c1cc2cc(F)cnc2n(-c2cc(Cl)cc(Cl)c2)c1=O [Compound 4.23]"
  study-target: "Abuthilon theophrasti (ABUTH)"
  value-reported: 80
- compound: "Cc1ccccc1-n1c(=O)c(C(=O)C2C(=O)CCCC2=O)cc2cc(F)cnc21 [Compound 4.22]"
  study-target: "Abuthilon theophrasti (ABUTH)"
  value-reported: 90
- compound: "COc1ccc(-n2c(=O)c(C(=O)C3C(=O)CCCC3=O)cc3cc(F)cnc32)cc1 [Compound 4.18]"
  study-target: "Abuthilon theophrasti (ABUTH)"
  value-reported: 90
- compound: "O=C1CCCC(=O)C1C(=O)c1cc2cc(F)cnc2n(-c2cccc(C(F)(F)F)c2)c1=O [Compound 4.11]"
  study-target: "Abuthilon theophrasti (ABUTH)"
  value-reported: 90
- compound: "O=C1CCCC(=O)C1C(=O)c1cc2cc(F)cnc2n(CC(F)F)c1=O [Compound 1.45]"
  study-target: "Abuthilon theophrasti (ABUTH)"
  value-reported: 100
- compound: "O=C1CCCC(=O)C1C(=O)c1cc2cc(F)cnc2n(CCC=C(F)F)c1=O [Compound 1.48]"
  study-target: "Abuthilon theophrasti (ABUTH)"
  value-reported: 90
- compound: "Cc1ccc(-n2c(=O)c(C(=O)C3C(=O)CCCC3=O)cc3cc(F)cnc32)cc1 [Compound 4.24]"
  study-target: "Abuthilon theophrasti (ABUTH)"
  value-reported: 100
- compound: "O=C1CCCC(=O)C1C(=O)c1cc2cc(F)cnc2n(-c2cccc(Cl)c2)c1=O [Compound 4.25]"
  study-target: "Abuthilon theophrasti (ABUTH)"
  value-reported: 90
- compound: "COc1ccc(-n2c(=O)c(C(=O)C3C(=O)CCCC3=O)cc3cc(F)cnc32)cn1 [Compound 4.20]"
  study-target: "Abuthilon theophrasti (ABUTH)"
  value-reported: 100
- compound: "O=C1CCCC(=O)C1C(=O)c1cc2cc(F)cnc2n(-c2ccccc2C(F)(F)F)c1=O [Compound 4.34]"
  study-target: "Abuthilon theophrasti (ABUTH)"
  value-reported: 100
- compound: "COc1ccc(Cn2c(=O)c(C(=O)C3C(=O)CCCC3=O)cc3cc(F)cnc32)cc1 [Compound 4.17]"
  study-target: "Abuthilon theophrasti (ABUTH)"
  value-reported: 70

---

Test system: Echinochloa crus-galli (ECHCG)
test-summary: Herbicidal glasshouse test, post-emergence
Type: in vivo
condition-description: Echinochloa crus-galli, post-emergence, 312 h, POST Application, evaluated after 13 days, read-out: damage to plant (100=total damage to plant; 0=no damage to plant)
pest or weed control at 250 g/ha listing for selected molecules.
observed-property: pest or weed control at 250 g/ha (%)

- structure-smiles: "Cn1c(=O)c(C(=O)C2C(=O)CCCC2=O)cc2ccc(Br)cc21"
  value-reported: 80
- structure-smiles: "CCn1c(=O)c(C(=O)C2C(=O)CCCC2=O)cc2cc(F)cnc21"
  value-reported: 80
- structure-smiles: "Cc1cc(C)c2cc(C(=O)C3C(=O)CCCC3=O)c(=O)n(C)c2n1"
  value-reported: 70
- structure-smiles: "COCCn1c(=O)c(C(=O)C2C(=O)CCCC2=O)cc2cc(F)c(C)nc21"
  value-reported: 90
- structure-smiles: "Cn1c(=O)c(C(=O)C2C(=O)CCCC2=O)cc2cccnc21"
  value-reported: 80
